target: NUAK family SNF1-like kinase 1 (Homo sapiens); settings: at 1 µM
This listing pairs compounds with measured residual activity.
Give the number; % is assumed, so skip it.

Study these solved cases before continuing.
Data request: Enter reported residual activity observed with NUAK family SNF1-like kinase 1 (Homo sapiens) for COc1cc2ncnc(Nc3ccc(O)c(Br)c3)c2cc1OC
Data returned: 78

Data request: Moving on to O=C1NC(=O)c2c1c1c3ccccc3[nH]c1c1[nH]c3cc(Br)ccc3c21
Data returned: 52

Data request: Here is the next compound: Oc1ccc(-c2nc(-c3ccc(F)cc3)c(-c3ccncc3)[nH]2)cc1
Data returned: 122

Data request: Could you do the same for N#C/C(=C(\N)Sc1ccc(N)cc1)c1ccccc1C(F)(F)F , please?
Data returned: 106

Data request: Do the same for c1ccc2c(-c3ccncc3)c[nH]c2c1 please
Data returned: 97

Next:
Data request: Request - read-out residual activity | tested on NUAK family SNF1-like kinase 1 (Homo sapiens) | compound O=C1c2ccccc2-[n+]2ccc3c([nH]c4ccccc43)c21
Data returned: 97

Data request: Query Cc1cc2ncc(-c3ccccc3)nc2cc1C next
Data returned: 92

Data request: Try this compound too: CC(=O)c1ccc(N2CCOCC2)cc1O
Data returned: 97

Data request: Request: COc1ccc(OC)c2c(=S)c3ccccc3[nH]c12
Data returned: 103

Data request: Can you handle COc1ccc(C(=O)Nc2sc3c(c2C(N)=O)CCCC3)cc1OC next?
Data returned: 87

Data request: Try the compound Ic1cccc(CSc2nnc(-c3ccncc3)o2)c1
Data returned: 105

Data request: Next up: CO[C@@H]1[C@H](N(C)C(=O)c2ccccc2)C[C@H]2O[C@]1(C)n1c3ccccc3c3c4c(c5c6ccccc6n2c5c31)C(=O)NC4
Data returned: 7

Data request: Here is the next compound: COc1cccc(-c2cc(=O)c3ccccc3o2)c1N
Data returned: 109

Data request: And the next one, Cc1nc(-c2ccccc2)c(-c2ccncc2)o1 ?
Data returned: 99

Data request: Try Nc1ccc2ncnc(NCCc3ccc(Oc4ccccc4)cc3)c2c1 next.
Data returned: 108

Data request: One more compound: O=C1NC(=O)c2cc(Nc3ccc(F)cc3)c(Nc3ccc(F)cc3)cc21
Data returned: 101

Data request: Then this compound: Cc1cccc(-c2[nH]c(C(C)(C)C)nc2-c2ccc3c(c2)OCO3)n1
Data returned: 102

Data request: Can you handle Nc1n[nH]c2nnc(-c3c(-c4ccccc4)nn4ccccc34)cc12 next?
Data returned: 105

Data request: Item: Oc1n[nH]c2nnc(-c3c(-c4ccccc4)nn4ccccc34)cc12
Data returned: 100

Data request: Okay, and CCN(CC)CCCCN1c2ccccc2Oc2ccc(Cl)cc21 ?
Data returned: 115

Data request: Entry to check: O=C1Nc2cc(Br)ccc2/C1=C1/Nc2ccccc2/C1=N\O
Data returned: 11

Data request: Same for COc1cc2ncnc(Nc3ccc(Oc4ccccc4)cc3)c2cc1OC
Data returned: 104

Data request: What would you report for CC(C)n1cnc2c(NCc3ccccc3)nc(NCCCO)nc21 ?
Data returned: 99

Data request: Try the compound O=C1NC(=O)/C(=C\c2ccc3nccnc3c2)S1
Data returned: 90

Data request: Try this compound too: O=c1c2ccccc2[nH]c(=S)n1CCN1CCC(=C(c2ccc(F)cc2)c2ccc(F)cc2)CC1
Data returned: 90

---

target: Tyrosine-protein kinase receptor UFO (Homo sapiens) (UniProt P30530); details: at 1 µM
Sequence (P30530 whole entry): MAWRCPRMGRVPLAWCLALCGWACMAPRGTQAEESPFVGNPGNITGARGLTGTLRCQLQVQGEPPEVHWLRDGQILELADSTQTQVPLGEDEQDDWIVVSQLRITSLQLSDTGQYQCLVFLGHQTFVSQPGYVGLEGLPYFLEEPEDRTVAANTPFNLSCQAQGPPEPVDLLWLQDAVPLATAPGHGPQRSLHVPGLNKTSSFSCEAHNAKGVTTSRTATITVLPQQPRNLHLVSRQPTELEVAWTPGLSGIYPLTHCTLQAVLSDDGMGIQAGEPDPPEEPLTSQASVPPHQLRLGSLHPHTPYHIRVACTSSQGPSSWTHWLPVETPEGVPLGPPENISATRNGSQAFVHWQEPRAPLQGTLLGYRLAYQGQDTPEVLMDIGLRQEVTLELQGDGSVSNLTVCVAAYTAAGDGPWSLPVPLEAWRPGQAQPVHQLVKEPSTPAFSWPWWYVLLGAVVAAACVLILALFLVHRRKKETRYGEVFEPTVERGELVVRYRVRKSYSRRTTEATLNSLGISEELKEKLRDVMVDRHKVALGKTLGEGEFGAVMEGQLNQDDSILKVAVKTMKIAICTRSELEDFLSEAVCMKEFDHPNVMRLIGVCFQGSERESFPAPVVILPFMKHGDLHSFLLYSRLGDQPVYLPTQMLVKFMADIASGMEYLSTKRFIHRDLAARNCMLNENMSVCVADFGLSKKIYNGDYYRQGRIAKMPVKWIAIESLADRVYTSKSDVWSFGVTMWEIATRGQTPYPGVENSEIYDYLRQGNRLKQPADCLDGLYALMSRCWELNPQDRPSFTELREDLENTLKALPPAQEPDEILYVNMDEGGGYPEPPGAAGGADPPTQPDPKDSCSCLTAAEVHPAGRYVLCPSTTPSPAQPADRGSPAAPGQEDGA
We begin with a simple list: items and their reported residual activity.
// note: answer is a bare numeric in %

Below, each entry is followed by its recorded residual activity result.
Data request: Record request: residual activity value, item Nc1n[nH]c2nnc(-c3c(-c4ccccc4)nn4ccccc34)cc12
Data returned: 98

Data request: // repeat for O=[N+]([O-])c1ccc(-c2nc(-c3ccc(F)cc3)c(-c3ccncc3)[nH]2)cc1 and report
Data returned: 120

Data request: Try this compound next: CN(C)c1ccc(/C=C2\C(=O)Nc3ccccc32)cc1
Data returned: 78

Data request: How about this compound: CC#CC(=O)Nc1cc2c(Nc3ccc(F)c(Cl)c3)ncnc2cn1
Data returned: 82

Others:
Data request: Could you share which residual activity value was measured for COc1ccc(S(=O)(=O)N(CCO)c2ccccc2CN(C)C/C=C/c2ccc(Cl)cc2)cc1 ?
Data returned: 107

---

biological target: Glycogen synthase kinase-3 alpha (Homo sapiens) (UniProt P49840); settings: at 1 µM
Sequence (P49840 2-483 limits assumed): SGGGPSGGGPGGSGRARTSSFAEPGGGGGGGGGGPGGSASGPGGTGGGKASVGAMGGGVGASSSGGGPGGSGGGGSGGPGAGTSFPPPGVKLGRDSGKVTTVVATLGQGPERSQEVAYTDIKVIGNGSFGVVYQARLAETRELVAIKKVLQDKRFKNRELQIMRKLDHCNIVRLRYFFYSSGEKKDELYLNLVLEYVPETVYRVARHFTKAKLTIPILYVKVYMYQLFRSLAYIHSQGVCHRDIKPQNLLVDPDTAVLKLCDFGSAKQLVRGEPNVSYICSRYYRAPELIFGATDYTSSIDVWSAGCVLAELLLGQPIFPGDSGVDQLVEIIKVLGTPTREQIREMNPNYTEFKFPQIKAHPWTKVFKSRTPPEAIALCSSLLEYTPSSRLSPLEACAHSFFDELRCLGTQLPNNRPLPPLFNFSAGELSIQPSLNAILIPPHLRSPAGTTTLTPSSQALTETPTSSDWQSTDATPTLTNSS
Property Name: residual activity (%)
Field: numeric (%). Do not append units.

Below, 7 molecules whose answers are already recorded.
Data request: Look at this molecule and give its reported residual activity. COc1ccc(CNc2nc(N(CCO)CCO)nc3c2ncn3C(C)C)cc1
Data returned: 74

Data request: Do the same for COc1ccc(OC)c2c(=S)c3ccccc3[nH]c12 please
Data returned: 100

Data request: Same question, Cc1nc(-c2ccccc2)c(-c2ccncc2)o1 this time
Data returned: 92

Data request: Entry to check: COc1cc2ncnc(N3CCN(C(=O)Nc4ccc(Oc5ccccc5)cc4)CC3)c2cc1OC
Data returned: 103

Data request: Also, Cc1ccc(S(=O)(=O)/C=C/C#N)cc1 please.
Data returned: 115

Data request: Now consider Cn1cnc2cc3c(Nc4cccc(Br)c4)ncnc3cc21 and answer again.
Data returned: 103

Data request: Then what about the molecule Cn1nc2c3c(cccc31)C(=O)c1ccccc1-2 ?
Data returned: 86

***
Data request: Field request: residual activity | item: O=C1Nc2cc(Br)ccc2/C1=C1/Nc2ccccc2/C1=N\O
Data returned: -1

---

molecular target: Tyrosine-protein kinase Blk (Homo sapiens); conditions: at 1 µM
Property Name: residual activity (%)
The reply should be a number in %, with the unit left off.

Record excerpt, results attached:
Data request: What measured residual activity is associated with CCC(=O)Nc1ccc2ncnc(Nc3cccc(Br)c3)c2c1 on Tyrosine-protein kinase Blk (Homo sapiens)?
Data returned: 112

Data request: And what about the compound COc1cc2ncnc(Nc3ccc(NC(=O)c4ccccc4)cc3)c2cc1OC ?
Data returned: 20

Data request: Repeat with Cc1ccc(NC2=CC(=O)c3sc(C)nc3C2=O)cc1
Data returned: 112

Data request: Also need O=C(Nc1cccc(Nc2nccc(Nc3cccc(C(F)(F)F)c3)n2)c1)C1CC1 , thanks.
Data returned: 77

Data request: Please do the same for O=c1c2ccccc2[nH]c(=S)n1CCN1CCC(=C(c2ccc(F)cc2)c2ccc(F)cc2)CC1 as well.
Data returned: 101

Others:
Data request: Test system Tyrosine-protein kinase Blk (Homo sapiens); read-out residual activity; what value for Nc1n[nH]c2nnc(-c3c(-c4ccccc4)nn4ccccc34)cc12 ?
Data returned: 100

Data request: Try the compound Cn1cc(/C=C2\C(=O)Nc3ccc(S(N)(=O)=O)cc32)c2ccccc21
Data returned: 9

Data request: And for O=C(Nc1cccc(Nc2cc(Nc3cccc(C(F)(F)F)c3)ncn2)c1)C1CC1 ?
Data returned: 97

Data request: What about this compound? COc1cccc(-c2cc(=O)c3ccccc3o2)c1N
Data returned: 114

Data request: Also check Cn1nc2c3c(cccc31)C(=O)c1ccccc1-2
Data returned: 111

---

biological target: Tyrosine-protein kinase TXK (Homo sapiens) (UniProt P42681); details: at 1 µM
Sequence (P42681 whole entry): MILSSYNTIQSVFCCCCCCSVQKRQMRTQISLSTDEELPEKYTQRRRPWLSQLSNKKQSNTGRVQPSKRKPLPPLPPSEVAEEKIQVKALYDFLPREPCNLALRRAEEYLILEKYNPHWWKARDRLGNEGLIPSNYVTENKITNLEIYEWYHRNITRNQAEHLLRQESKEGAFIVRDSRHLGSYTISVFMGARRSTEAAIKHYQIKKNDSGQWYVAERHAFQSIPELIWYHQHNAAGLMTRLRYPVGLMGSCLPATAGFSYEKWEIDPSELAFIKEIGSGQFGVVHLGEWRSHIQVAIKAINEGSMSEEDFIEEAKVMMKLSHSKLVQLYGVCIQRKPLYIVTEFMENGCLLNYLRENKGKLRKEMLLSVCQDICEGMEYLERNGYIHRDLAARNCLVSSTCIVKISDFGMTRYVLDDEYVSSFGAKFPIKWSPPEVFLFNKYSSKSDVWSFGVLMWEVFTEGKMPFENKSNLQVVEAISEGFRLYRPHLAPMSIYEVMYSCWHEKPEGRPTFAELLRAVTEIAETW
Property Name: residual activity (%)
All answers are understood in %, so give the number only.

Would you please look over these solved cases?
Data request: Dear colleague, I am looking for the recorded residual activity of the following compound: Nc1n[nH]c2nnc(-c3c(-c4ccccc4)nn4ccccc34)cc12
Data returned: 77

Data request: Another compound: O=[N+]([O-])c1ccc(-c2nc(-c3ccc(F)cc3)c(-c3ccncc3)[nH]2)cc1
Data returned: 61

Data request: And for CC(C)n1cnc2c(NCc3ccccc3)nc(NCCCO)nc21 ?
Data returned: 75

Data request: And the next one, Cc1cc(Nc2nc(-c3ccccc3)nc3ccccc23)n[nH]1 ?
Data returned: 30

Here is another compound to look at.
Data request: residual activity for COc1cccc(-c2cc(=O)c3ccccc3o2)c1N ?
Data returned: 77

---

target: Muscle, skeletal receptor tyrosine-protein kinase (Homo sapiens); settings: at 10 µM
Property Name: residual activity (%)
Response body: numeric value in %, unit text excluded.

Data request: Tell me reported residual activity for N#CC(C#N)=C(N)/C(C#N)=C/c1ccc(O)cc1 , tested with Muscle, skeletal receptor tyrosine-protein kinase (Homo sapiens).
Data returned: 82

Data request: Moving on to O=C1NC(=O)/C(=C/c2ccc3c(c2)OC(F)(F)O3)S1
Data returned: 89

***
Data request: Give recorded residual activity with Muscle, skeletal receptor tyrosine-protein kinase (Homo sapiens) for the following compound: CC[n+]1c(/C=C/N(C)c2ccccc2)n(-c2ccccc2)c2ccc(-c3nc4ccccc4s3)cc21
Data returned: 58

---

target: Mitogen-activated protein kinase 9 (Homo sapiens) (UniProt P45984); details: at 1 µM
Sequence (P45984 whole entry, looked up): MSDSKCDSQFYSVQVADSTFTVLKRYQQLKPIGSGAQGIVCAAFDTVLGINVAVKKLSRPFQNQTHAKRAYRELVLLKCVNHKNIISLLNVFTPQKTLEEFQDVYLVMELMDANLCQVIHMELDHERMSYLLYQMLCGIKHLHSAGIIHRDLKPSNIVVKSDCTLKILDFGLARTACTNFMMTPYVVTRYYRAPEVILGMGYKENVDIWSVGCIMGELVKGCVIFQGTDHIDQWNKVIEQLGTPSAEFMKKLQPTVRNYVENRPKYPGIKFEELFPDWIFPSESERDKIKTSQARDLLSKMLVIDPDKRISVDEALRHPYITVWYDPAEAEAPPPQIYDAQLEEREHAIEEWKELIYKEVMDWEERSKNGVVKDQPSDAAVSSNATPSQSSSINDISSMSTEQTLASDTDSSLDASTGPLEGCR
Description: Millipore: Percentage of residual kinase activity of MAPK9 at 1uM relative to control. Control inhibitor: Jnk Inhibitor II at 100.0uM. Buffer: 50 mM Tris pH 7.5, 0.1 mM EGTA, 0.1% ?-mercaptoethanol
Property Name: residual activity (%)
Kindly provide the numeric value in % only, without the unit symbol.

Below, each entry is followed by its recorded residual activity result.
Data request: Return reported residual activity; argument: Nc1nc(Nc2ccc(S(N)(=O)=O)cc2)nn1C(=S)Nc1c(F)cccc1F
Data returned: 71

Data request: Entry c1ccc2c(-c3ccncc3)c[nH]c2c1 please
Data returned: 107

Data request: Can you handle O=C1NC(=O)c2cc(Nc3ccc(F)cc3)c(Nc3ccc(F)cc3)cc21 next?
Data returned: 112

Data request: // repeat for C[C@@H](N)[C@H]1CC[C@H](C(=O)Nc2ccncc2)CC1 and report
Data returned: 111

Data request: Next molecule: COc1cc2ncnc(Nc3ccc(O)c(Br)c3)c2cc1OC
Data returned: 99

Others:
Data request: For the molecule Cn1cnc2cc3c(Nc4cccc(Br)c4)ncnc3cc21 , what residual activity is on record?
Data returned: 112

Data request: Let us now turn to CC(=O)O/N=C1\C(=C2\C(=O)Nc3cc(Br)ccc32)Nc2ccccc21
Data returned: 91

Data request: And for CCC(=O)Nc1ccc2ncnc(Nc3cccc(Br)c3)c2c1 ?
Data returned: 105

Data request: Query CC(C)n1cnc2c(NCc3ccccc3)nc(NCCCO)nc21 next
Data returned: 98

Data request: Continue with N#C/C(=C(\N)Sc1ccc(N)cc1)c1ccccc1C(F)(F)F
Data returned: 93

Data request: Repeat for the following molecule: CN(C)c1ccc(/C=C2\C(=O)Nc3ccccc32)cc1
Data returned: 102

Data request: Thanks! And Cn1cc(/C=C2\C(=O)Nc3ccc(S(N)(=O)=O)cc32)c2ccccc21 ?
Data returned: 98
